Value source: patent US5733924A

Tested on: Enterococcus faecium ATCC 10541
Test: Antibacterial activity, agar dilution method (MIC)
Format: cell-based
Conditions: Enterococcus faecium, ATCC10541, pH 7, read-out: MIC (minimum growth inhibitory concentration), EF: Enterococcus faecium ATCC 10541
Recorded MIC, one value per entry.
quantityKind: MIC (µg/mL)

compound	quantityKind	experimentalValue
C/C1=C\C(OC(=O)c2cnc3ccccc3n2)C(=O)/C=C/C=C\c2csc(n2)C(C)N2C(=O)CC(C(C)(O)C(=O)SCc3oc(=O)oc3C)(CC1)[S+]2[O-] (centres unmarked)	MIC	0.72
CC1=CC(OC(=O)CNC(=O)CN(C)C(=O)OCc2ccccc2)C(=O)C=CC=Cc2csc(n2)C(C)N2C(=O)CC(C(C)(O)C(=O)SCc3oc(=O)oc3C)(CC1)[S+]2[O-] (centres unmarked)	MIC	1
C/C1=C\C(OC(=O)OCC(C)C)C(=O)/C=C/C=C\c2csc(n2)C(C)N2C(=O)CC(C(C)(O)C(=O)SCc3oc(=O)oc3C)(CC1)[S+]2[O-] (centres unmarked)	MIC	0.13
C/C1=C\C(OCOCc2ccccc2)C(=O)/C=C/C=C\c2csc(n2)C(C)N2C(=O)CC(C(C)(O)C(=O)SCc3oc(=O)oc3C)(CC1)[S+]2[O-] (centres unmarked)	MIC	0.65
C/C1=C\C(OC2CCCCO2)C(=O)/C=C/C=C\c2csc(n2)C(C)N2C(=O)CC(C(C)(O)C(=O)SCc3oc(=O)oc3C)(CC1)[S+]2[O-] (single isomer, unassigned)	MIC	0.65
